- target-system: T1, human ferroportin (SLC40A1) fused in frame with GFP (human) (UniProt Q9NP59)
- T1 sequence (looked up): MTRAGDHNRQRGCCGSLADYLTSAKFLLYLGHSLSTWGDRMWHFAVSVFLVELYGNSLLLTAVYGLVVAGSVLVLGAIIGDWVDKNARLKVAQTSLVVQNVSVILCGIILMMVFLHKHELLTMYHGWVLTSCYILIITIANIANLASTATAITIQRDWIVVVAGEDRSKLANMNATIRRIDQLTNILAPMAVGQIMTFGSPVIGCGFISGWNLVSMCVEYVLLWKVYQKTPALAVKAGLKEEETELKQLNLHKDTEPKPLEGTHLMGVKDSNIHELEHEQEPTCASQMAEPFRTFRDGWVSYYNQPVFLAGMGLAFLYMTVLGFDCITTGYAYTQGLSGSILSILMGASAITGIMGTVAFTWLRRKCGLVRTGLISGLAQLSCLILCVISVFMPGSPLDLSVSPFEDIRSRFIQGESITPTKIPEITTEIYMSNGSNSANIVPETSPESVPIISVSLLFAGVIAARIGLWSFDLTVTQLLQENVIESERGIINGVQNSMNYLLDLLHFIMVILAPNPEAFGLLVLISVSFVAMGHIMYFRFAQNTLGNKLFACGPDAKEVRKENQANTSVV
- protocol-details: cell-based or functional assay
Starred links: 1 amine or outer side, 2 acyl side, 3 side chain; linkers in the order of their positions; H or OH if unused. Positions of bridges follow the written chain, without caps; N, C: chain ends. Non-standard residues stand in square brackets, D forms with d. Groups on a side chain read outwards from the residue. *: point of attachment. Pro(4Amino) = proline with a 4-amino group; Dip = N[C@H](C(=O)O)C(c1ccccc1)c1ccccc1; γGlu = O=C(O)[C@H](CCC(=O)[*:2])N[*:1]; Palmitoyl = CCCCCCCCCCCCCCCC(=O)*; β3hF = N[C@H](CC(=O)O)Cc1ccccc1; Isovaleryl = CC(C)CC(=O)*; Ahx = NCCCCCC(=O)O
parameter-measured: FPN EC50 (nM)

| binder | result-units | FPN EC50 |
| --- | --- | --- |
| Isovaleryl-DTHFPCLK([γGlu-Palmitoyl])FEPRSKGCK-NH2 (disulfide 6-16 (inferred)) [Compd. ID 216] | nM | 16.6 |

(I) Isovaleryl-DTH[Dip]PCI[Pro(4Amino)][β3hF]K([Ahx-Palmitoyl])[dK]C-NH2 (disulfide 6-12 (inferred)) [Compd. ID 31]
(II) DTHXPCIKXKC (N-term isovaleric acid; 4 Dpa; 8 Lys[Ahx-Behenic_Acid]; 9 bhPhe; 10 (D)Lys; C-term NH2) [Compd. ID 8]
[in] Between I and II , which one shows the smaller FPN EC50 number? # answer = label of selected item
[out] I
(I: 18 nM, II: 550 nM)
